- Method description: Lipophilicity by RP-UHPLC capacity factors (logkw, Φ0)
- Type: physicochemical
- Test parameters: RP-UHPLC, MeOH/0.1% formic acid in water, 25 °C; logk extrapolated to 100% water
# Intercept logkw per record follows
Quantity kind: Intercept logkw

> print(dat)
                                     smiles  numeric.value
1  Cc1ccc(C(C)C)cc1.F[P-](F)(F)(F)(F)F.O=C1C2=C(NCc3ccccc3)[O][Ru-]([n+]3cc4ccccc4[nH]3)[O+]=C2c2ccccc21           5.94
2  Cc1ccc(C(C)C)cc1.O=C1C2=C(NCc3ccccc3)[O][Ru-]([Cl])[O+]=C2c2ccccc21           5.41
3  Cc1ccc(C(C)C)cc1.F[P-](F)(F)(F)(F)F.O=C1C2=C(NCc3ccccc3)[O][Ru-]([n+]3c[nH]c4ccccc43)[O+]=C2c2ccccc21           5.55
4  Cc1ccc(C(C)C)cc1.Cn1ccnc1.F[P-](F)(F)(F)(F)F.O=C1C(=C(NCc2ccccc2)[O][Ru+])C(=O)c2ccccc21           5.49

----------
- Method description: Lipophilicity by RP-UHPLC capacity factors (logkw, Φ0)
- Format: physicochemical
- Test parameters: RP-UHPLC, MeOH/0.1% formic acid in water, 25 °C; logk extrapolated to 100% water
- Experimental: It stands to reason that the higher the lipophilicity, the higher the cell accumulation; as far as passive diffusion is concerned, the higher efficiency with which normal cell function is compromised. As a consequence, lipophilicity is an important factor in drug development, described by the partition coefficient logP, which is routinely determined by the distribution of a compound in 1-octanol/water. […] The capacity factors k were determined with the use of an RP-UHPLC. […]
Quantity kind: Intercept logkw

> print(dat)
                                     smiles  numeric.value
1  Cc1ccc(C(C)C)cc1.F[P-](F)(F)(F)(F)F.O=C1C2=C(NCc3ccccc3)[O][Ru-]([n+]3ccc[nH]3)[O+]=C2c2ccccc21           5.36
2  Cc1ccc(C(C)C)cc1.F[P-](F)(F)(F)(F)F.O=C1C2=C(NCc3ccccc3)[O][Ru-]([NH+]3CCOCC3)[O+]=C2c2ccccc21           5.14
3  Cc1ccc(C(C)C)cc1.F[P-](F)(F)(F)(F)F.O=C1C(=C(NCc2ccccc2)[O][Ru+])C(=O)c2ccccc21.c1ccncc1           5.25

----------
- Test system: A549 (non-small cell lung cancer) cells
- Method description: MTT antiproliferative assay, A549
- Assay type: cell-based, human
- Test parameters: exposure time 96 h, means ± standard deviations
- Description: CH1/PA-1 (ovarian teratocarcinoma) cells were a generous gift from Lloyd R. Kelland (CRC Centre for Cancer Therapeutics, Institute of Cancer Research, Sutton, UK). A549 (non-small cell lung cancer), SW480, and HCT116 (both colon cancer) cells were kindly provided by the Institute of Cancer Research, Department of Medicine I, Medical University of Vienna, Austria. […] Optical densities at 550 nm (and at the reference wavelength of 690 nm) were measured with a microplate reader (ELx808, Bio-Tek). […]
pIC50: −log10 of the molar value.
# pIC50 annotations
Quantity kind: pIC50

> print(dat)
                                     smiles  quantity.kind  numeric.value
1  Cc1ccc(C(C)C)cc1.O=C1C2=C(NCc3ccccc3)[O][Ru-]([Cl])[O+]=C2c2ccccc21          pIC50           4.63
2  Cc1ccc(C(C)C)cc1.F[P-](F)(F)(F)(F)F.O=C1C2=C(NCc3ccccc3)[O][Ru-]([n+]3cc4ccccc4[nH]3)[O+]=C2c2ccccc21          pIC50           4.63
3  Cc1ccc(C(C)C)cc1.F[P-](F)(F)(F)(F)F.O=C1C2=C(NCc3ccccc3)[O][Ru-]([n+]3c[nH]c4ccccc43)[O+]=C2c2ccccc21          pIC50           4.72
4  Cc1ccc(C(C)C)cc1.F[P-](F)(F)(F)(F)F.O=C1C2=C(NCc3ccccc3)[O][Ru-]([NH+]3CCOCC3)[O+]=C2c2ccccc21          pIC50           4.72
5  Cc1ccc(C(C)C)cc1.Cn1ccnc1.F[P-](F)(F)(F)(F)F.O=C1C(=C(NCc2ccccc2)[O][Ru+])C(=O)c2ccccc21          pIC50           4.67
6  Cc1ccc(C(C)C)cc1.F[P-](F)(F)(F)(F)F.O=C1C2=C(NCc3ccccc3)[O][Ru-]([n+]3ccc[nH]3)[O+]=C2c2ccccc21          pIC50           4.64
7  Cc1ccc(C(C)C)cc1.F[P-](F)(F)(F)(F)F.O=C1C(=C(NCc2ccccc2)[O][Ru+])C(=O)c2ccccc21.c1ccncc1          pIC50           4.66

----------
Below, each of the compounds is paired with its reported Slope S value.
- Method description: Lipophilicity by RP-UHPLC capacity factors (logkw, Φ0)
- Format: physicochemical
- Test parameters: slope of logk against % organic eluent (MeOH)
Quantity kind: Slope S

> print(dat)
                                     smiles   result
1  Cc1ccc(C(C)C)cc1.F[P-](F)(F)(F)(F)F.O=C1C(=C(NCc2ccccc2)[O][Ru+])C(=O)c2ccccc21.c1ccncc1  −0.0845
2  Cc1ccc(C(C)C)cc1.Cn1ccnc1.F[P-](F)(F)(F)(F)F.O=C1C(=C(NCc2ccccc2)[O][Ru+])C(=O)c2ccccc21  −0.0888
3  Cc1ccc(C(C)C)cc1.O=C1C2=C(NCc3ccccc3)[O][Ru-]([Cl])[O+]=C2c2ccccc21  −0.0855
4  Cc1ccc(C(C)C)cc1.F[P-](F)(F)(F)(F)F.O=C1C2=C(NCc3ccccc3)[O][Ru-]([n+]3cc4ccccc4[nH]3)[O+]=C2c2ccccc21  −0.0863
5  Cc1ccc(C(C)C)cc1.F[P-](F)(F)(F)(F)F.O=C1C2=C(NCc3ccccc3)[O][Ru-]([n+]3ccc[nH]3)[O+]=C2c2ccccc21  −0.0841
6  Cc1ccc(C(C)C)cc1.F[P-](F)(F)(F)(F)F.O=C1C2=C(NCc3ccccc3)[O][Ru-]([n+]3c[nH]c4ccccc43)[O+]=C2c2ccccc21  −0.0843

----------
- Method description: Lipophilicity by RP-UHPLC capacity factors (logkw, Φ0)
- Assay type: physicochemical
- Test parameters: percentage of methanol in the eluent at which logk is zero; Φ0 = −logkw/S
Quantity kind: Φ0

> print(dat)
                                     smiles  quantity.kind  numeric.value
1  Cc1ccc(C(C)C)cc1.O=C1C2=C(NCc3ccccc3)[O][Ru-]([Cl])[O+]=C2c2ccccc21             Φ0          63.19
2  Cc1ccc(C(C)C)cc1.F[P-](F)(F)(F)(F)F.O=C1C(=C(NCc2ccccc2)[O][Ru+])C(=O)c2ccccc21.c1ccncc1             Φ0          62.07
3  Cc1ccc(C(C)C)cc1.F[P-](F)(F)(F)(F)F.O=C1C2=C(NCc3ccccc3)[O][Ru-]([n+]3cc4ccccc4[nH]3)[O+]=C2c2ccccc21             Φ0          68.88
4  Cc1ccc(C(C)C)cc1.Cn1ccnc1.F[P-](F)(F)(F)(F)F.O=C1C(=C(NCc2ccccc2)[O][Ru+])C(=O)c2ccccc21             Φ0          61.84
5  Cc1ccc(C(C)C)cc1.F[P-](F)(F)(F)(F)F.O=C1C2=C(NCc3ccccc3)[O][Ru-]([NH+]3CCOCC3)[O+]=C2c2ccccc21             Φ0          59.73
6  Cc1ccc(C(C)C)cc1.F[P-](F)(F)(F)(F)F.O=C1C2=C(NCc3ccccc3)[O][Ru-]([n+]3ccc[nH]3)[O+]=C2c2ccccc21             Φ0          63.72
7  Cc1ccc(C(C)C)cc1.F[P-](F)(F)(F)(F)F.O=C1C2=C(NCc3ccccc3)[O][Ru-]([n+]3c[nH]c4ccccc43)[O+]=C2c2ccccc21             Φ0          65.87

----------
- Tested on: SW480 (colon cancer) cells
- Method description: MTT antiproliferative assay, SW480
- Type: cell-based, human
- Test parameters: exposure time 96 h, means ± standard deviations
Rule: measured IC50 below 10 µM gets Criterion met; anything equal to or greater than 10 µM gets Criterion not met.

> print(dat)
                                   compound     category.label
1  Cc1ccc(C(C)C)cc1.F[P-](F)(F)(F)(F)F.O=C1C2=C(NCc3ccccc3)[O][Ru-]([n+]3ccc[nH]3)[O+]=C2c2ccccc21 [1c]  Criterion not met
2  Cc1ccc(C(C)C)cc1.F[P-](F)(F)(F)(F)F.O=C1C2=C(NCc3ccccc3)[O][Ru-]([n+]3cc4ccccc4[nH]3)[O+]=C2c2ccccc21 [1e]  Criterion not met
3  Cc1ccc(C(C)C)cc1.F[P-](F)(F)(F)(F)F.O=C1C(=C(NCc2ccccc2)[O][Ru+])C(=O)c2ccccc21.c1ccncc1 [1f]      Criterion met
4  Cc1ccc(C(C)C)cc1.O=C1C2=C(NCc3ccccc3)[O][Ru-]([Cl])[O+]=C2c2ccccc21 [1a]  Criterion not met
5  Cc1ccc(C(C)C)cc1.F[P-](F)(F)(F)(F)F.O=C1C2=C(NCc3ccccc3)[O][Ru-]([NH+]3CCOCC3)[O+]=C2c2ccccc21 [1g]      Criterion met
6  Cc1ccc(C(C)C)cc1.F[P-](F)(F)(F)(F)F.O=C1C2=C(NCc3ccccc3)[O][Ru-]([n+]3c[nH]c4ccccc43)[O+]=C2c2ccccc21 [1d]      Criterion met
7  Cc1ccc(C(C)C)cc1.Cn1ccnc1.F[P-](F)(F)(F)(F)F.O=C1C(=C(NCc2ccccc2)[O][Ru+])C(=O)c2ccccc21 [1b]  Criterion not met
